assayed.system: RORγ (Mus musculus, UniProt P51450)
Sequence (P51450 1-516): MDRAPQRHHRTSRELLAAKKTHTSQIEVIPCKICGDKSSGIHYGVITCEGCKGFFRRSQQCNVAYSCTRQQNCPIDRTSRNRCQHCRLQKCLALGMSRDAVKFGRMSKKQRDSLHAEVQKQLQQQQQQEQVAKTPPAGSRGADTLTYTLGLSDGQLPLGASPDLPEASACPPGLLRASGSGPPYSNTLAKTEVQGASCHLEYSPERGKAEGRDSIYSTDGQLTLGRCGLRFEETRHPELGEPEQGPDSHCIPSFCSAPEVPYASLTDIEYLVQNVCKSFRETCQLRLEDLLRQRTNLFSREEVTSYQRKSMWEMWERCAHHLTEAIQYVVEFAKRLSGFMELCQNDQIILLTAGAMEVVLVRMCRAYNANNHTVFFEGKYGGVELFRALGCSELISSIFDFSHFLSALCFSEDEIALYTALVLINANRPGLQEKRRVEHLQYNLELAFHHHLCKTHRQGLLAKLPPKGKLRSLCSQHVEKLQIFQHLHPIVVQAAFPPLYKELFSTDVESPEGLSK
assay.context: in presence of 1.25 μM SR2211, test compound at different concentrations
assay.metric: Reversal of the SR2211-mediated inhibition of RORγ transactivation

# smi, observed.value
measured = [
    ("CCCCCCOC(=O)c1ccc(O)cc1", "significant increase"),
    ("COc1ccc(C(=O)c2ccc(C)cc2)c(O)c1", "significant increase"),
    ("O=C(OCc1ccccc1)c1ccc(O)cc1", "significant increase"),
]
